species: Homo sapiens; assay: Compound was tested for the inhibition of LTB4 production in human whole blood (HWB); format: functional; conditions: Homo sapiens, Blood
Assign pIC50 to each entry below.
One number for each entry, as −log10 of the molar value.

The examples below pair each entry with its known result.
O=C1OCc2c1cc1cc(OCc3cccc(C4(O)CCOCC4)c3)ccc1c2-c1cccnc1 = 5.92
O=C1OCc2c1cc1cc(OCc3cccc(C4(O)CCOC(O)C4)c3)ccc1c2-c1ccccc1 (stereo not given) = 5.80
Cn1nnc(-c2cc(-c3ccoc3)c3ccc(OCc4cccc(C5(O)CCOCC5)c4)cc3c2)n1 = 7.10

For the compound shown here, "O=C1OCc2c1cc1cc(OCc3cccc(C4(O)CCOCC4)c3)ccc1c2-c1ccoc1" , give the reported pIC50. 7.00

###

target: UniProtKB P09917; test: Potency to inhibit oxidation of arachidonic acid by recombinant human 5-lipoxygenase
Sequence (P09917 whole entry): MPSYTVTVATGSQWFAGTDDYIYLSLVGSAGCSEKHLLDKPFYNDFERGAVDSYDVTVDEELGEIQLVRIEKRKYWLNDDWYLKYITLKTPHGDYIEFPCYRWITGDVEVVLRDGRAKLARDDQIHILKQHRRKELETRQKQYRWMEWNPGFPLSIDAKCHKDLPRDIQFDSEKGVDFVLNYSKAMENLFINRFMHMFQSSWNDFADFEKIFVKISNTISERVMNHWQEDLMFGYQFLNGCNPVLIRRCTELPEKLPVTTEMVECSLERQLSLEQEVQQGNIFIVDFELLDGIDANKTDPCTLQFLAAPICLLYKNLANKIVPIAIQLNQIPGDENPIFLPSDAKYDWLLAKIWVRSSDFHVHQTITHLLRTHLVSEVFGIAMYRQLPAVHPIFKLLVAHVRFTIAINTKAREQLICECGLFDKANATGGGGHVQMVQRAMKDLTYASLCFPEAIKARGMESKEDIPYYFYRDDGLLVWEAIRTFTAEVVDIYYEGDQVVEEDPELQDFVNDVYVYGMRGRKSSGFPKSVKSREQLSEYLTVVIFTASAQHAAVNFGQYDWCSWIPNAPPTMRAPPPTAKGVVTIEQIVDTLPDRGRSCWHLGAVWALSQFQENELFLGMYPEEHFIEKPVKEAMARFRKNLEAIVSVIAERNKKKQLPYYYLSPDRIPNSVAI
pIC50: −log10 of the molar value.
Could you label it 1 (yes) if measured pIC50 is 6 or higher, and 0 (no) otherwise?

Cn1nnc(-c2cc(-c3ccoc3)c3ccc(OCc4cccc(C5(O)CCOCC5)c4)cc3c2)n1 = 1 (yes)
N#Cc1cc(-c2ccoc2)c2ccc(OCc3cccc(C4(O)CC5COC(C4)O5)c3)cc2c1 (configuration not stated) = 1 (yes)
O=C(c1ccccc1)c1cc(-c2ccoc2)c2ccc(OCc3cccc(C4(O)CCOCC4)c3)cc2c1 = 1 (yes)

Decide: pIC50 of "CCCCc1cc(C(=O)OC)cc2cc(OCc3cccc(C4(O)CCOCC4)c3)ccc12" >= 6? 0 (no)

What would you report for COC1CC(O)(c2cccc(COc3ccc4c(-c5ccccc5)c5c(cc4c3)C(=O)OC5)c2)CCO1 (configuration not stated) ? 1 (yes)

What would you report for O=C1OCc2c1cc1cc(OCc3cccc(C4(O)CC5COC(C4)O5)c3)ccc1c2-c1ccoc1 (stereo in doubt; 3u) ? 1 (yes)

###

species: Homo sapiens; assay: Compound was tested for the inhibition of LTB4 production in human whole blood (HWB); assay type: functional; conditions: Homo sapiens, Blood
attribute measured: IC50 (nM)
Give bare numbers, in nM.

The examples below pair each entry with its known result.
CC1(C)COC(c2cc(-c3ccoc3)c3ccc(OCc4cccc(C5(O)CCOCC5)c4)cc3c2)=N1 = 2900
OC1(c2cccc(COc3ccc4c(-c5ccoc5)cc(C5=NCCS5)cc4c3)c2)CCOCC1 = 75
COC(=O)c1cc(-c2ccccc2)c2ccc(OCc3cccc(C4(O)CCOCC4)c3)cc2c1 = 100

Batch: IC50 for all items listed.
1. O=C1OCc2c1cc1cc(OCc3cccc(C4(O)CCOCC4)c3)ccc1c2-c1ccsc1
2. O=C(c1ccccc1)c1cc(-c2ccoc2)c2ccc(OCc3cccc(C4(O)CCOCC4)c3)cc2c1
3. N#Cc1cc(-c2ccccc2)c2ccc(OCc3cccc(C4(O)CCOCC4)c3)cc2c1
4. O=C1OCc2c1cc1cc(OCc3cccc(C4(O)CC5COC(C4)O5)c3)ccc1c2-c1ccccc1 (centres undefined)
5. COC1(c2cc(F)cc(OCc3ccc4c(ccc(=O)n4C)c3)c2)CCOCC1

[50, 200, 100, 540, 80]

For the compound shown here, "O=C1OCc2c1cc1cc(OCc3cccc(C4(O)CCOCC4)c3)ccc1c2-c1ccccc1Cl" , give the reported IC50. 1100

###

organism: Homo sapiens; experiment: Compound was tested for the inhibition of LTB4 production in human whole blood (HWB); type: functional; conditions: Homo sapiens, Blood
Assign IC50 to each entry below.

The examples below pair each entry with its known result.
O=C1CC(O)(c2cccc(COc3ccc4c(-c5ccccc5)c5c(cc4c3)C(=O)OC5)c2)CCO1 (centres undefined) = > 3000 nM
OC1(c2cccc(COc3ccc4c(-c5ccccc5)cc(-c5nn[nH]n5)cc4c3)c2)CCOCC1 = > 3000 nM
O=C1OCc2c1cc1cc(OCc3cccc(C4(O)CC5C=CC(C4)O5)c3)ccc1c2-c1ccccc1 (centres undefined) = > 3000 nM

Let us move to another entry and its IC50.
For the compound shown here, O=C1OC(O)c2c1cc1cc(OCc3cccc(C4(O)CCOCC4)c3)ccc1c2-c1ccccc1 (centres undefined) , give the reported IC50. > 3000 nM
